meta.source: ChEMBL document CHEMBL3751693

- System: Klebsiella pneumoniae
- assay.procedure: Antimicrobial activity against clinical isolate ESBL-Klebsiella pneumoniae J 1436808 after 48 hrs
- Format: functional
- condition.context: J 1436808, 48 h
For each record, write down the corresponding MIC.
Numbers only, in µM.

Recorded results for 2 compounds are shown here.
In [3]: df
Out[3]:
                       sample_smiles                 system  result_type  numeric_readout
0    CCCCCCCCCCCC[N+](C)(C)Cc1ccccc1  Klebsiella pneumoniae          MIC                1
1  CCCCCCCCCCCCCCCC[n+]1ccc2ccccc2c1  Klebsiella pneumoniae          MIC              7.8

# input Identify measured MIC corresponding to "CCCCCCCCCCCCCC[N+](C)(C)Cc1ccccc1"
# output 7.8

* * *

Would you kindly list MIC for each of these compounds?
- System: Trichosporon asahii
- assay.procedure: Antimicrobial activity against Trichosporon asahii 1188 after 48 hrs by spectrophotometry
- Assay type: functional
- condition.context: Trichosporon asahii, 1188, 48 h
Numbers only, in µM.

In [3]: df
Out[3]:
                               compound  numeric_readout
0  CCCCCCCCCCCCCCCC[n+]1ccc2c(O)cccc2c1               63
1     CCCCCCCCCCCCCCCC[n+]1ccc2ccccc2c1              3.9
2       CCCCCCCCCCCC[N+](C)(C)Cc1ccccc1                2
3   CCCCCCCCCCCCCCCC[N+](C)(C)Cc1ccccc1              7.8
4     CCCCCCCCCCCCCC[N+](C)(C)Cc1ccccc1               31
5           CCCCCCCCCC[n+]1ccc2ccccc2c1              250

# map each compound to its MIC
1. CCCCCCCCCCCC[n+]1ccc2ccccc2c1 [LAURYL ISOQUINOLINIUM BROMIDE]
2. CCCCCCCCCCCCCC[n+]1ccc2ccccc2c1
3. CCCCCCCCCCCCCC[n+]1ccc2c(O)cccc2c1
4. CCCCCCCCCC[n+]1ccc2c(O)cccc2c1

# output
63
3.9
7.8
250

# input Input "CCCCCCCCCCCC[n+]1ccc2c(O)cccc2c1" , output reported MIC.
# output 31

* * *

- Test system: Enterococcus sp.
- assay.procedure: Antimicrobial activity against clinical isolate Enterococcus sp. J 1436508 after 48 hrs
- Format: functional
- condition.context: J 1436508, 48 h
Would you kindly list MIC for each of these compounds?
Give bare numbers, in µM.

Record excerpt, results attached:
In [3]: df
Out[3]:
                         sample_smiles  numeric_readout
0    CCCCCCCCCCCCCC[N+](C)(C)Cc1ccccc1                2
1  CCCCCCCCCCCCCCCCCC[n+]1ccc2ccccc2c1                2

Now examine the next entry.
# input Assign MIC to the following record: "CCCCCCCCCCCCCCCC[N+](C)(C)Cc1ccccc1"
# output 2

* * *

Please respond with reported MIC for every item in the list.
- System: Escherichia coli
- assay.procedure: Antimicrobial activity against clinical isolate Escherichia coli CCM 4517 after 24 hrs
- Format: functional
- condition.context: CCM 4517, 24 h
Answers are plain numbers, in µM.

These solved cases illustrate the format of a correct answer.
>>> print(df.to_string())
                       sample_smiles            system  unit_symbol  numeric_readout
0     CCCCCCCCCC[n+]1ccc2c(O)cccc2c1  Escherichia coli           µM               63
1        CCCCCCCCCC[n+]1ccc2ccccc2c1  Escherichia coli           µM               63
2  CCCCCCCCCCCCCC[N+](C)(C)Cc1ccccc1  Escherichia coli           µM              7.8

API: the following record is the query input.
# input Give me measured MIC, please, for this compound: "CCCCCCCCCCCCCC[n+]1ccc2ccccc2c1"
# output 2

* * *

- Test system: Staphylococcus epidermidis
- assay.procedure: Antimicrobial activity against clinical isolate Staphylococcus epidermidis H 696608 after 48 hrs
- Format: functional
- condition.context: H 696608, 48 h
Answer each item with its documented MIC.
Answers are plain numbers, in µM.

See these solved cases before continuing.
>>> print(df.to_string())
                          sample_smiles                      system  result_type  numeric_readout
0       CCCCCCCCCCCCCC[n+]1ccc2ccccc2c1  Staphylococcus epidermidis          MIC              0.5
1  CCCCCCCCCCCCCCCC[n+]1ccc2c(O)cccc2c1  Staphylococcus epidermidis          MIC               63
2      CCCCCCCCCCCC[n+]1ccc2c(O)cccc2c1  Staphylococcus epidermidis          MIC              3.9
3       CCCCCCCCCCCC[N+](C)(C)Cc1ccccc1  Staphylococcus epidermidis          MIC              0.5
4     CCCCCCCCCCCCCCCC[n+]1ccc2ccccc2c1  Staphylococcus epidermidis          MIC              0.5
5   CCCCCCCCCCCCCCCC[N+](C)(C)Cc1ccccc1  Staphylococcus epidermidis          MIC              0.5

Then this compound:
# input State its MIC for this compound: "CCCCCCCCCCCCCCCCCC[n+]1ccc2ccccc2c1"
# output 0.5

* * *

- Tested on: Staphylococcus epidermidis
- assay.procedure: Antimicrobial activity against clinical isolate Staphylococcus epidermidis H 696608 after 24 hrs
- Type: functional
- condition.context: H 696608, 24 h
Assignment: determine reported MIC for the given compounds.
Numbers only, in µM.

Record excerpt, results attached:
                                   compound  numeric_readout
0            CCCCCCCCCC[n+]1ccc2c(O)cccc2c1              250
1  CCCCCCCCCCCC[n+]1ccc2ccccc2c1 [LAURYL ISOQUINOLINIUM BROMIDE]              0.5

Next compound, MIC to be filled in.
# input Determine its reported MIC: "CCCCCCCCCCCC[N+](C)(C)Cc1ccccc1"
# output 0.5
